Overview of reported pIC50 across a group of compounds:
experimental_target: NR1A/NR2B NMDA receptor subtype (Rattus norvegicus, UniProt P35439+Q00960)
Construct: buffy coat membrane fraction was prepared from frozen adult rat forebrains; tissue Zivic-Miller Laboratories, Inc; host or cells: adult rat forebrain membranes
Sequence (Q00960 27-1482, other chains not shown): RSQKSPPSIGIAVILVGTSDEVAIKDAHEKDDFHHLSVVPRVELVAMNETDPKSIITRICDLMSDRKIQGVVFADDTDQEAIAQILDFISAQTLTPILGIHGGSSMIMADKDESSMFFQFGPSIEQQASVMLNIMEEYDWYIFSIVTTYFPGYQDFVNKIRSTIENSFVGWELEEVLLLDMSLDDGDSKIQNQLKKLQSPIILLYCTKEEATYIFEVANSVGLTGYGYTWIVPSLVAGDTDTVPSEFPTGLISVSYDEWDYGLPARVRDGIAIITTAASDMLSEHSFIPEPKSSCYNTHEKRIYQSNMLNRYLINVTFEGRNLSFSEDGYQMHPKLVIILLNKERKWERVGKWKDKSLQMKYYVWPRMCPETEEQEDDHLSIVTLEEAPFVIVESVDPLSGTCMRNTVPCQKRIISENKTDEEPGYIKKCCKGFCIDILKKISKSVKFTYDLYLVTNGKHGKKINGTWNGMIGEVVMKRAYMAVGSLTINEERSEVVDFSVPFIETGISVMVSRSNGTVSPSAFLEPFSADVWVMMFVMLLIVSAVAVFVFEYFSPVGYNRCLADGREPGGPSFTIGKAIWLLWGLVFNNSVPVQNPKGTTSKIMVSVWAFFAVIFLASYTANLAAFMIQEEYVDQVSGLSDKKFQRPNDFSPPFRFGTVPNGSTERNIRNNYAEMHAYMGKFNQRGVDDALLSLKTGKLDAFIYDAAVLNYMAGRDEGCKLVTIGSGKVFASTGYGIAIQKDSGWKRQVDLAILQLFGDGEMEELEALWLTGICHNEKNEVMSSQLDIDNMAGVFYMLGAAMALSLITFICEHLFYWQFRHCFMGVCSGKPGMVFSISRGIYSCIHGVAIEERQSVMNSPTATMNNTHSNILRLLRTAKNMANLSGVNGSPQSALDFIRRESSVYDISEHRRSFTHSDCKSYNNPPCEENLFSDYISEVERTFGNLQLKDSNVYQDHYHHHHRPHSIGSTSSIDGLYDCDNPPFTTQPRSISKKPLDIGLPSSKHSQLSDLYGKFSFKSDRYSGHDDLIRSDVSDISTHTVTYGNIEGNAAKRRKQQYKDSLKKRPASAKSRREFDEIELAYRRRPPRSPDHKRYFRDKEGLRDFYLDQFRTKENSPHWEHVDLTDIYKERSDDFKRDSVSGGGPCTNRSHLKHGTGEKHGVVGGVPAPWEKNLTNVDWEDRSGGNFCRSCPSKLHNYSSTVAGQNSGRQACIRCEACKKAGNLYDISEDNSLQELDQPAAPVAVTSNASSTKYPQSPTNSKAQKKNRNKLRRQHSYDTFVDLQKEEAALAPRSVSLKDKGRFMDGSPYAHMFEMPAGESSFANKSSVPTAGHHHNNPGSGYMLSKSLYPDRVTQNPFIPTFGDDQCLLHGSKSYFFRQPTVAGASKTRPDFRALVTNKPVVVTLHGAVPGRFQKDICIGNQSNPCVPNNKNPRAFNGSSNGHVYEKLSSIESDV
method_notes: [3H]Ifenprodil binding assay (IFPNR), rat forebrain membranes
condition_context: Table 3, 4 nM [3H]-ifenprodil, read-out: IFPNR IC50
pIC50: −log10 of the molar value.

compound | readout_label | value_observed
O=c1[nH]c2ccc(C3=NOC(CN4CCC(O)(c5ccccc5)CC4)C3)cc2o1 (stereo not shown) [Example 35] | pIC50 | < 6.00
O=C(C1CC(c2ccc3[nH]c(=O)oc3c2)=NO1)N1CCC(Cc2ccc(F)cc2)CC1 (stereo not shown) [Example 18] | pIC50 | < 6.00
Cc1noc(CN2CCC(Cc3ccccc3)CC2)c1-c1ccc2[nH]c(=O)oc2c1 [Example 2] | pIC50 | < 6.00

Now for another entry.
For the compound O=c1[nH]c2ccc(C3=NOC(CCN4CCC(Cc5ccc(F)cc5)CC4)C3)cc2o1 (stereo not shown) [Example 19] , report pIC50. 6.40
